The measured values listed here are drawn from paper PMC7830545.

Target: CYP3A4 (Homo sapiens)
Experiment: Spectral binding titrations (equilibrium ligand binding, type II spectral change)
Set-up: Codon-optimized full-length and Δ3–22 human CYP3A4 were produced as reported previously [45] and used for assays and crystallization, respectively; made in house
Details: ratio between the absorbance maxima of ferric ligand-bound and ligand-free CYP3A4
# A421/417 per entry

Use these answered entries as a reference point.
>>> obs_value("CC(C)(C)OC(=O)NC(CSC(Cc1ccccc1)C(=O)NCCOCc1cccnc1)Cc1ccccc1 (stereo not shown) [Compound 6]")
1.07
>>> obs_value("CC(C)(C)OC(=O)NC(CSCC(Nc1ccccc1)C(=O)NCCCc1cccnc1)Cc1ccccc1 (stereo not shown) [Compound 8]")
1.10
>>> obs_value("CC(C)(C)OC(=O)NC(CSC(Cc1ccccc1)C(=O)NCCCc1cccnc1)Cc1cccc2ccccc12 (stereo not shown) [Compound 3g]")
1.09
>>> obs_value("CC(C)(C)OC(=O)N[C@H](CS[C@H](Cc1ccccc1)C(=O)NCCCc1cccnc1)Cc1c[nH]c2ccccc12 [Compound 3e]")
1.11
>>> obs_value("CC(C)(C)OC(=O)NC(CSC(Cc1ccccc1)C(=O)NCCCc1cccnc1)Cc1ccccc1 (stereo not shown) [Compound 3b]")
1.08
>>> obs_value("CC(C)(C)OC(=O)N[C@H](CS[C@@H](Cc1ccccc1)C(=O)NCCCc1cccnc1)Cc1cccc2ccccc12 [Compound 3h]")
1.09

Which A421/417 value belongs to CC(C)(C)OC(=O)N[C@@H](CS[C@H](Cc1ccccc1)C(=O)NCCCc1cccnc1)Cc1cccc2ccccc12 [Compound 3i] ?
1.10

====

# portion of the protein reduced per entry
Biological target: UniProt:P08684
Test: Kinetics of heme reduction of inhibitor-bound CYP3A4 with sodium dithionite
Parameters: Codon-optimized full-length and Δ3–22 human CYP3A4 were produced as reported previously [45] and used for assays and crystallization, respectively; made in house
Details: k ET; heme reduction by sodium dithionite
Please reply with the bare figure in % and do not write the unit itself.

Use these answered entries as a reference point.
>>> obs_value("CC(C)(C)OC(=O)N[C@@H](CS[C@H](Cc1ccccc1)C(=O)NCCCc1cccnc1)Cc1ccccc1")
95
>>> obs_value("CC(C)(C)OC(=O)N[C@H](CS[C@H](Cc1ccccc1)C(=O)NCCCc1cccnc1)Cc1c[nH]c2ccccc12")
85

Continue with the next molecule.
// fetch UniProt:P08684 portion of the protein reduced for CC(C)(C)OC(=O)NC(CSC(Cc1ccccc1)C(=O)NCCCc1cccnc1)Cc1cccc2ccccc12 (stereo not drawn) [Compound 3f]
94

====

# k ET per entry
Molecular target: CYP3A4 (Homo sapiens)
Experiment: Kinetics of heme reduction of inhibitor-bound CYP3A4 with sodium dithionite
Design: Codon-optimized full-length and Δ3–22 human CYP3A4 were produced as reported previously [45] and used for assays and crystallization, respectively; made in house
Conditions: rate constant for reduction of inhibitor-bound CYP3A4 with sodium dithionite
Please reply with the bare figure in s⁻¹ and do not write the unit itself.

>>> obs_value("CC(C)(C)OC(=O)NC(CSC(Cc1ccccc1)C(=O)NCCCc1cccnc1)Cc1cccc2ccccc12 (stereo not shown) [Compound 3f]")
0.011

Which k ET value belongs to CC(C)(C)OC(=O)NC(CSC(Cc1ccccc1)C(=O)NCCCc1cccnc1)Cc1ccccc1 (stereo not shown) ?
0.014

Please do the same for CC(C)(C)OC(=O)N[C@@H](CS[C@H](Cc1ccccc1)C(=O)NCCCc1cccnc1)Cc1ccccc1 as well.
0.013

Please do the same for CC(C)(C)OC(=O)N[C@H](CS[C@H](Cc1ccccc1)C(=O)NCCCc1cccnc1)Cc1c[nH]c2ccccc12 as well.
0.020

====

# ΔTm at 15 min, 20 μM per entry
Target: CYP3A4 (Homo sapiens, UniProt P08684)
Sequence (P08684 whole entry): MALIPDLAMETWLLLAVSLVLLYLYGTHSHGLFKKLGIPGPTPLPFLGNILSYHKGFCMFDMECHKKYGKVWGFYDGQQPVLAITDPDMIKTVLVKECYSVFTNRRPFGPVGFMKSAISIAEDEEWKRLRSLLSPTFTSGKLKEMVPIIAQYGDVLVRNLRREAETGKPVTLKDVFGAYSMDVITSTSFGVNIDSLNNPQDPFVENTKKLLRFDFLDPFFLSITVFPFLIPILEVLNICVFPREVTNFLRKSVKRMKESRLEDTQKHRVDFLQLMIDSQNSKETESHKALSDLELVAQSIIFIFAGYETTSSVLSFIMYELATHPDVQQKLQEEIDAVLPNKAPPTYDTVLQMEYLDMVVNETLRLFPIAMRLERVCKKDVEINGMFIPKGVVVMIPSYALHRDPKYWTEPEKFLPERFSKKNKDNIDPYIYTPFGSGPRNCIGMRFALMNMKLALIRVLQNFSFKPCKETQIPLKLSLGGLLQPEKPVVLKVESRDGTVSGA
Assay: Thermal denaturation (melting temperature of ligand-bound CYP3A4)
Format: binding
Parameters: Codon-optimized full-length and Δ3–22 human CYP3A4 were produced as reported previously [45] and used for assays and crystallization, respectively; made in house
Conditions: human, purified CYP3A4 protein, pH 7.4, ligand-dependent change in melting temperature; 1 μM protein, 20 μM ligand
Please reply with the bare figure in °C and do not write the unit itself.

Which ΔTm at 15 min, 20 μM value belongs to CC(C)(C)OC(=O)N[C@H](CS[C@H](Cc1ccccc1)C(=O)NCCCc1cccnc1)Cc1c[nH]c2ccccc12 ?
7.8

Please do the same for CC(C)(C)OC(=O)N[C@H](CS[C@@H](Cc1ccccc1)C(=O)NCCCc1cccnc1)Cc1ccccc1 as well.
5.8

Please do the same for CC(C)(C)OC(=O)NC(CSCC(Nc1ccccc1)C(=O)NCCCc1cccnc1)Cc1ccccc1 (centres unmarked) as well.
5

Please do the same for CC(C)(C)OC(=O)NC(CSC(Cc1ccccc1)C(=O)NCCCc1cccnc1)Cc1ccccc1 (centres unmarked) as well.
8.1

Please do the same for CC(C)(C)OC(=O)NC(CSC(Cc1ccccc1)C(=O)NCCCc1cccnc1)Cc1cccc2ccccc12 (centres unmarked) as well.
7.9

Please do the same for CC(C)(C)OC(=O)N[C@@H](CS[C@H](Cc1ccccc1)C(=O)NCCCc1cccnc1)Cc1cccc2ccccc12 as well.
5.5

Please do the same for CC(C)(C)OC(=O)N[C@@H](CS[C@H](Cc1ccccc1)C(=O)NCCCc1cccnc1)Cc1ccccc1 as well.
5.6

====

# percentage of the fast phase per entry
Biological target: CYP3A4 (Homo sapiens, UniProt P08684)
Assay: Stopped-flow kinetics of ligand binding
Parameters: Codon-optimized full-length and Δ3–22 human CYP3A4 were produced as reported previously [45] and used for assays and crystallization, respectively; made in house
Settings: value in brackets of k fast column
Please reply with the bare figure in % and do not write the unit itself.

>>> obs_value("CC(C)(C)OC(=O)NC(CSC(Cc1ccccc1)C(=O)NCCCc1cccnc1)Cc1ccccc1 (stereo not shown)")
36
>>> obs_value("CC(C)(C)OC(=O)NC(CSC(Cc1ccccc1)C(=O)NCCOCc1cccnc1)Cc1ccccc1 (stereo not shown)")
29
>>> obs_value("CC(C)(C)OC(=O)N[C@H](CS[C@H](Cc1ccccc1)C(=O)NCCCc1cccnc1)Cc1c[nH]c2ccccc12")
24

Which percentage of the fast phase value belongs to CC(C)(C)OC(=O)N[C@H](CS[C@@H](Cc1ccccc1)C(=O)NCCCc1cccnc1)Cc1cccc2ccccc12 ?
24

====

Target: CYP3A4 (Homo sapiens, UniProt P08684)
Assay: Kinetics of heme reduction of inhibitor-bound CYP3A4 with sodium dithionite
Parameters: Codon-optimized full-length and Δ3–22 human CYP3A4 were produced as reported previously [45] and used for assays and crystallization, respectively; made in house
Conditions: rate constant for reduction of inhibitor-bound CYP3A4 with sodium dithionite
Observation Type: k ET (s⁻¹)
Please reply with the bare figure in s⁻¹ and do not write the unit itself.

>>> obs_value("CC(C)(C)OC(=O)NC(CSC(Cc1ccccc1)C(=O)NCCOCc1cccnc1)Cc1ccccc1 (stereo not drawn)")
0.017
>>> obs_value("CC(C)(C)OC(=O)N[C@H](CS[C@@H](Cc1ccccc1)C(=O)NCCCc1cccnc1)Cc1cccc2ccccc12")
0.017

Continue with the next compound.
Which k ET value belongs to CC(C)(C)OC(=O)N[C@@H](CS[C@H](Cc1ccccc1)C(=O)NCCCc1cccnc1)Cc1cccc2ccccc12 ?
0.021
